test details: Pharmacokinetic experiments in rats (IV, oral suspension, oral solution)
Format: in vivo
cond: male, rat, plasma, po, 20 mg/kg, Group 5, PO-Solution 20 mg/kg, individual animals, read-out: T ½ (converted)
observed property: half-life (h)
Respond with the bare value in h.

Please give the measured half-life for this molecule: `O=C(NNc1nc2cc(F)ccc2n2cccc12)c1cnccn1.O=C(O)C(=O)O`
1.18

---

test details: Pharmacokinetic experiments in rats (IV, oral suspension, oral solution)
Type: in vivo
cond: male, rat, plasma, oral, 20 mg/kg, Group 3, PO-Suspension 20 mg/kg, 1 hr, Mean
Experimental: The oral suspension formulation was prepared by suspending the test article in 5% PEG-200/95% of a 0.5% solution of methylcellulose. The concentration of the test article was such that a dosing volume of 10 mL/kg delivered the intended dose level. […] The whole blood samples were centrifuged (˜1500×g) for a minimum of 10 minutes in a refrigerated centrifuge (set at ˜5° C.). […] The plasma samples were analyzed by LC-MS/MS to determine the plasma concentrations of NVX-144 and NVX-412. […]
observed property: concentration at 1 h (ng/mL)
Respond with the bare value in ng/mL.

Please give the measured concentration at 1 h for this compound: `O=C(NNc1nc2cc(F)ccc2n2cccc12)c1cnccn1.O=C(O)C(=O)O`
525
